- System: Plutella xylostella
- procedure.details: Insecticidal activity against Plutella xylostella (Airbrush spray on cabbage leaf discs)
- Type: in vivo
- particulars: Plutella xylostella, foliar, 72 h, read-out: fatality rate against Plutella xylostella, 1 mg/L, 3 d after administration
Quick list: pest or weed control at 1 µg/mL per entry.

molecule: N#CCN(C(=O)c1ccccc1)c1cccc(C(=O)Nc2c(Br)cc(C(F)(C(F)(F)F)C(F)(F)F)cc2Br)c1F [Compound 2.321]
pest or weed control at 1 µg/mL: ≥ 90%

molecule: N#CCN(C(=O)c1ccccc1)c1cccc(C(=O)Nc2c(Br)cc(C(F)(C(F)(F)F)C(F)(F)F)cc2C(F)(F)F)c1F [Compound 9.321]
pest or weed control at 1 µg/mL: ≥ 90%

molecule: N#CCN(C(=O)c1ccccc1)c1cccc(C(=O)Nc2c(Br)cc(C(F)(C(F)(F)F)C(F)(F)F)cc2I)c1F [Compound 8.321]
pest or weed control at 1 µg/mL: ≥ 90%

---

Quick list: pest or weed control at 40 µg/mL per entry.
- Tested on: Chilo suppressalis
- procedure.details: Insecticidal activity against Chilo suppressalis (spray on rice seedlings, stems fed to larvae)
- Type: in vivo
- particulars: Chilo suppressalis, 72 h, read-out: fatality rate against Chilo suppressalis
quantity.name: pest or weed control at 40 µg/mL

cpd.smiles: N#CCN(C(=O)c1ccccc1)c1cccc(C(=O)Nc2c(Br)cc(C(F)(C(F)(F)F)C(F)(F)F)cc2Br)c1F
quantity.name: pest or weed control at 40 µg/mL
result: ≥ 90%
--
cpd.smiles: N#CCN(C(=O)c1cccc(NC(=O)c2ccccc2)c1F)c1c(Br)cc(C(F)(C(F)(F)F)C(F)(F)F)cc1Br
quantity.name: pest or weed control at 40 µg/mL
result: ≥ 90%
--
cpd.smiles: Cc1cc(C(F)(C(F)(F)F)C(F)(F)F)cc(Br)c1NC(=O)c1cccc(N(CC#N)C(=O)c2ccccc2)c1F
quantity.name: pest or weed control at 40 µg/mL
result: ≥ 90%

---

- Test system: Plutella xylostella
- procedure.details: Insecticidal activity against Plutella xylostella (Airbrush spray on cabbage leaf discs)
- Format: in vivo
- particulars: Table 72, 5 mg/L, 3 d after administration
Quick list: Fatality rate (%, 3 d after administration) 5 mg/L per entry.
quantity.name: Fatality rate (%, 3 d after administration) 5 mg/L (%)

compound: NC(=O)CCN(C(=O)c1ccccc1)c1cccc(C(=O)N(CCC(N)=O)c2c(Br)cc(C(F)(C(F)(F)F)C(F)(F)F)cc2C(F)(F)F)c1F [CK8, reference compound]
measurement.target: Plutella xylostella
result: 65.8
--
compound: Cc1cc(C(F)(C(F)(F)F)C(F)(F)F)cc(Br)c1N(CC#N)C(=O)c1cccc(NC(=O)c2ccccc2)c1F
measurement.target: Plutella xylostella
result: 100
--
compound: NC(=O)CCN(C(=O)c1ccccc1)c1cccc(C(=O)N(CCC(N)=O)c2c(Br)cc(C(F)(C(F)(F)F)C(F)(F)F)cc2C(F)(F)F)c1F [CK5, reference compound]
measurement.target: Plutella xylostella
result: 63.5
--
compound: NC(=O)CCN(C(=O)c1ccccc1)c1cccc(C(=O)N(CCC(N)=O)c2c(Br)cc(C(F)(C(F)(F)F)C(F)(F)F)cc2C(F)(F)F)c1F [CK12, reference compound]
measurement.target: Plutella xylostella
result: 60
--
compound: Cc1cc(C(F)(C(F)(F)F)C(F)(F)F)cc(Br)c1NC(=O)c1cccc(N(CC#N)C(=O)c2ccccc2)c1F
measurement.target: Plutella xylostella
result: 100

Entry source: patent US11407711B2
